B1: HDV Ribozyme (parent)
chain: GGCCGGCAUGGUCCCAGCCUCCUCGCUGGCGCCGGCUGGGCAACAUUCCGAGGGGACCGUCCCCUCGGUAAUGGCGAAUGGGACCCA

Variants of: B1
Test Summary: self-cleavage, relative activity (ratio to wild type); higher = more cleavage; co-transcriptional
Reported Property: self-cleavage
Reply: number alone, nothing else.

Prompt line: Recorded self-cleavage for G2A U69A , please?
Response line: 0.22

Prompt line: How about U9A C84U ?
Response line: 0.749

Prompt line: How about G10C U20A ?
Response line: 0.0519

Prompt line: How about `C26G` ?
Response line: 0.952

Prompt line: How about A8C A83G ?
Response line: 0.646

Prompt line: How about C21G G39C ?
Response line: 0.554

Prompt line: How about G2C G80A ?
Response line: 0.0573

Prompt line: How about U20A C49G ?
Response line: 0.128

Prompt line: How about C75U C85G ?
Response line: 0.122

Prompt line: How about C44A A87G ?
Response line: 0.649

Prompt line: How about C22A U47G ?
Response line: 0.232

Prompt line: How about G1C G17U ?
Response line: 0.0573

Prompt line: How about G55A A71C ?
Response line: 0.978

Prompt line: How about U27G U72A ?
Response line: 0.361

Prompt line: How about C33G G40C ?
Response line: 0.138

Prompt line: How about U65C C86U ?
Response line: 0.516

Prompt line: How about G40C G76A ?
Response line: 0.163

Prompt line: How about U12C C48G ?
Response line: 0.185

Prompt line: How about C36G U65C ?
Response line: 0.18

Prompt line: How about A16U C26U ?
Response line: 0.831

Prompt line: How about A78U C85U ?
Response line: 0.18

Prompt line: How about U69C A87G ?
Response line: 1.1

Prompt line: How about C30U G80U ?
Response line: 0.116

Prompt line: How about A43G C86G ?
Response line: 0.727

Prompt line: How about G6A C58A ?
Response line: 0.724

Prompt line: How about A70G U79A ?
Response line: 0.77

Prompt line: How about G1U G17C ?
Response line: 0.341

Prompt line: How about C4U C32U ?
Response line: 0.525

Prompt line: How about G10U A87C ?
Response line: 0.801

Prompt line: How about G81A A87G ?
Response line: 0.258

Prompt line: How about A51G G68C ?
Response line: 0.831

Prompt line: How about G10C C13U ?
Response line: 0.119

Prompt line: How about U47G C86A ?
Response line: 0.814

Prompt line: How about C48A G54U ?
Response line: 0.975

Prompt line: How about U37C A56C ?
Response line: 1.11

Prompt line: How about G59U A83U ?
Response line: 0.486

Prompt line: How about C44U G80A ?
Response line: 0.125

Prompt line: How about C26G C41U ?
Response line: 0.76

Prompt line: How about G1A U60G ?
Response line: 0.302

Prompt line: How about G31A C48G ?
Response line: 0.456

Prompt line: How about C21U U23G ?
Response line: 0.13

Prompt line: How about C26G C64G ?
Response line: 0.787

Prompt line: How about G38U A42C ?
Response line: 0.0941

Prompt line: How about U37C C84U ?
Response line: 0.655

Prompt line: How about G82A A83G ?
Response line: 0.156

Prompt line: How about C3G C36G ?
Response line: 0.0343

Origin of values: the RNAGym collection of RNA variant scans (doi:10.7554/elife.80360)
